Where do these numbers come from? They come from ChEMBL document CHEMBL3763063.

system: Epidermal growth factor receptor (Homo sapiens, UniProt P00533)
Sequence (P00533 whole entry): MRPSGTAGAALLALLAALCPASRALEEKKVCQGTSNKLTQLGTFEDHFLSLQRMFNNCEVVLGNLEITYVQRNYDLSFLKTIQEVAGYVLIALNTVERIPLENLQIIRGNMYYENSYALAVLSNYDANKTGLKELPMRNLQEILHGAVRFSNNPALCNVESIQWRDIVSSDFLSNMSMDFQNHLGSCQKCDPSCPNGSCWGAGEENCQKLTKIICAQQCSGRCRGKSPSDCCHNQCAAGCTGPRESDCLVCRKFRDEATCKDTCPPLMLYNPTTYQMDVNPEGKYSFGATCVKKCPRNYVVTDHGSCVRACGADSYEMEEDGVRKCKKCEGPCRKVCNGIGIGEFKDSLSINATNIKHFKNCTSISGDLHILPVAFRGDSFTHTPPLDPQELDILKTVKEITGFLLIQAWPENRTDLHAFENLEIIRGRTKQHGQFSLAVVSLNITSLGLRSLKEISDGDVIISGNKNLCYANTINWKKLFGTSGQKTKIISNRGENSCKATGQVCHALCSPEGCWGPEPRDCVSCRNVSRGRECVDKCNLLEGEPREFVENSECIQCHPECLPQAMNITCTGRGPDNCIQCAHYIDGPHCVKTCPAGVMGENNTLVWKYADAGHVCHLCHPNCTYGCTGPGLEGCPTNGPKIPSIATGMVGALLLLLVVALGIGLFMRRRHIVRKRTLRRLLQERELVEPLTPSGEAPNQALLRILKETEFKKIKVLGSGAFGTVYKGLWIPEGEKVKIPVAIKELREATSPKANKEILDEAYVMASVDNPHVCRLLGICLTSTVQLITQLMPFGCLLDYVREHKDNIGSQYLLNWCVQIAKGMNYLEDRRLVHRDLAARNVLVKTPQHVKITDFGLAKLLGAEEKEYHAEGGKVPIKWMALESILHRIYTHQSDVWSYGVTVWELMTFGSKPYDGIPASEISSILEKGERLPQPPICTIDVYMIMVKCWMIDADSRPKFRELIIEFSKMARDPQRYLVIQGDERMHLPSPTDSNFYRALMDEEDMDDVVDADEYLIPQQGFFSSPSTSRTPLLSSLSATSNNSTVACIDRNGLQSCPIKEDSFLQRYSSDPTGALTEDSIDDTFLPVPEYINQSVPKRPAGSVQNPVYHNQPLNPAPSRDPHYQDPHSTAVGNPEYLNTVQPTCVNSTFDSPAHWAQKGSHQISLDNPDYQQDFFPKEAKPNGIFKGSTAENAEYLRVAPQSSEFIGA
pIC50: −log10 of the molar value.
endpointLabel: pIC50

COc1cc2ncnc(Nc3cc(C(=O)NC45CC6CC(CC(C6)C4)C5)ccc3C)c2cc1OCCCN1CCOCC1 | 7.81
COc1cc2ncnc(Nc3cccc(NC(=O)C45CC6CC(CC(C6)C4)C5)c3)c2cc1OCCCN1CCOCC1 | 8.51
COCCOc1cc2ncnc(Nc3ccc(NC(=O)C45CC6CC(CC(C6)C4)C5)cc3C)c2cc1OCCOC | 8.34
COc1cc2ncnc(Nc3ccc(C(=O)NC45CC6CC(CC(C6)C4)C5)c(Cl)c3)c2cc1OCCCN1CCOCC1 | 8.19
COCCOc1cc2ncnc(Nc3ccc(NC(=O)C45CC6CC(CC(C6)C4)C5)c(C#N)c3)c2cc1OCCOC | 8.30

a = COc1cc2ncnc(Nc3ccc(C(=O)NC45CC6CC(CC(C6)C4)C5)cc3)c2cc1OCCCN1CCOCC1
b = COc1cc2ncnc(Nc3ccc(C(=O)NC45CC6CC(CC(C6)C4)C5)c(C#N)c3)c2cc1OCCCN1CCOCC1
Q: Lab note: check whether a or b shows the higher recorded pIC50. Reply briefly: the label of your chosen item.
Result: a
(a: 8.70, b: 8.33)

====

system: Epidermal growth factor receptor (Homo sapiens, UniProt P00533, L858R/T790M)
Sequence (P00533 25-1210 T790M/L858R limits assumed): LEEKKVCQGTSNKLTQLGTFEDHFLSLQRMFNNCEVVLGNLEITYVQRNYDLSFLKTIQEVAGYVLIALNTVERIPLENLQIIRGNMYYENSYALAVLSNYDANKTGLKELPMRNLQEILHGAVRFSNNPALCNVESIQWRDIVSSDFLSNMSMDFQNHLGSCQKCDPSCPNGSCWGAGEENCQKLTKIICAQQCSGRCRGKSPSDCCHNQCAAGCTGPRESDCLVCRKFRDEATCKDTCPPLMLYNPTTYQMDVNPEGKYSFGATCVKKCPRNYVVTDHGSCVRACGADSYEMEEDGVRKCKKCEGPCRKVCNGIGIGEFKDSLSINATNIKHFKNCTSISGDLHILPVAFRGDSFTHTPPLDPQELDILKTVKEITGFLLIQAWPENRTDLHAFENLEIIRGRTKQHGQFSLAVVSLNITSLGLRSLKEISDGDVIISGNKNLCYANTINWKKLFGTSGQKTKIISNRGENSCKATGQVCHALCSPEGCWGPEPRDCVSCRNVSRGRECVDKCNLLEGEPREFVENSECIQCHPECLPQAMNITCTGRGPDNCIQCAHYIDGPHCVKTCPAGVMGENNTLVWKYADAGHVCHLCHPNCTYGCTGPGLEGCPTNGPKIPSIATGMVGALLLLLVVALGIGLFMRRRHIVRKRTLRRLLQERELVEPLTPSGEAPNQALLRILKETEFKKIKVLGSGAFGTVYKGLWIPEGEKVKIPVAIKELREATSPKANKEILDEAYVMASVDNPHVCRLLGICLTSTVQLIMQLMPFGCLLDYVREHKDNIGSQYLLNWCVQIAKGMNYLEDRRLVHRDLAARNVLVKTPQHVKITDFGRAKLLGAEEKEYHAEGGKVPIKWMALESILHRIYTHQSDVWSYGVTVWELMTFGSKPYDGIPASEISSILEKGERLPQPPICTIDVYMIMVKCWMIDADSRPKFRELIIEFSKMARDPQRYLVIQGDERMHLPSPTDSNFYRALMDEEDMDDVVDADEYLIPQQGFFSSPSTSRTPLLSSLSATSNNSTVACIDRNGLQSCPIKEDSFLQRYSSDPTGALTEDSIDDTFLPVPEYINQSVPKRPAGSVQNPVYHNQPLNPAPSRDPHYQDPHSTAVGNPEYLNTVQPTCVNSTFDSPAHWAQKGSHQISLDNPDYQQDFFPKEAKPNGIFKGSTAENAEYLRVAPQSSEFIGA
pIC50: −log10 of the molar value.
endpointLabel: pIC50

A = COc1cc2ncnc(Nc3cc(C(=O)NC45CC6CC(CC(C6)C4)C5)ccc3C)c2cc1OCCCN1CCOCC1
B = COc1cc2ncnc(Nc3ccc(C(=O)NC45CC6CC(CC(C6)C4)C5)c(Cl)c3)c2cc1OCCCN1CCOCC1
Q: Two entries are listed, A and B . Which one carries the higher pIC50? Refer to your chosen entry by its label in the reply.
Result: B

====

The molecules below have reported pIC50 for Epidermal growth factor receptor (Homo sapiens, UniProt P00533, L858R/T790M).
pIC50: −log10 of the molar value.
endpointLabel: pIC50

COc1cc2ncnc(Nc3cccc(C(=O)NC45CC6CC(CC(C6)C4)C5)c3)c2cc1OCCCN1CCOCC1 | 7.94

a = COCCOc1cc2ncnc(Nc3ccc(NC(=O)C45CC6CC(CC(C6)C4)C5)cc3C)c2cc1OCCOC
b = COCCOc1cc2ncnc(Nc3ccc(C(=O)NC45CC6CC(CC(C6)C4)C5)cc3)c2cc1OCCOC
c = COCCOc1cc2ncnc(Nc3ccc(NC(=O)C45CC6CC(CC(C6)C4)C5)c(C)c3)c2cc1OCCOC
Q: Arrange the 3 entries by pIC50 so the values rise. Reply: labels, ordered per the request.
Result: c, a, b

====

Tested on: MCF7;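 further: antiproliferative effect measured by MTT assay in EGFR-overexpressing MCF7 cells, with IC50 based on the drop in viable cells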
experiment: cells
Assay type: functional, cell-based
conditionLabel: Homo sapiens, MCF7, 72 h
Description: Antiproliferative activity against human MCF7 cells overexpressing EGFR assessed as reduction in cell viability after 72 hrs by MTT assay
endpointLabel: IC50 (µM)

COc1cc2ncnc(Nc3cccc(C(=O)NC45CC6CC(CC(C6)C4)C5)c3)c2cc1OCCCN1CCOCC1 | 23.6

I = COCCOc1cc2ncnc(Nc3cccc(NC(=O)C45CC6CC(CC(C6)C4)C5)c3)c2cc1OCCOC
II = COCCOc1cc2ncnc(Nc3ccc(NC(=O)C45CC6CC(CC(C6)C4)C5)c(C#N)c3)c2cc1OCCOC
Q: // which entry has the larger IC50 value, I or II ? Lab note: record the label of whichever item you select.
Result: I
(I: 11.2 µM, II: 5.64 µM)
